Below, each entry is listed alongside its reported melting point.

Given item "COC(=O)/C=C/c1ccc2nn(C)c(C)c2c1C(=O)OC" , the value recorded as its melting point is 133 to 135 °C

Given item "CCCCNC(=O)Cc1ccc2c(c1)c(Cc1ccc(C(=O)NS(=O)(=O)c3ccccc3C)cc1OC)cn2C" , the value recorded as its melting point is 108 to 110 °C

Given item "COc1cccc(CCc2c(C(=O)O)ccc(OC)c2OC)c1" , the value recorded as its melting point is 156 to 158 °C

----------
parameter-measured: melting point

Here is how some compounds turned out for melting point.
[
  {
    "compound": "COC(=O)n1cc(C=O)c(-c2ccc([N+](=O)[O-])o2)n1",
    "melting point": "187 to 189 °C"
  },
  {
    "compound": "COC(=O)CCCc1cc2cc(Cl)ccc2n1S(=O)(=O)c1ccc2nc(C)sc2c1",
    "melting point": "151 to 153 °C"
  },
  {
    "compound": "CC(C)(C)c1cc(C(C#N)N2CCCCC2)cc(C(C)(C)C)c1O (stereo not given)",
    "melting point": "110 to 111 °C"
  }
]

Given item "Cc1cc(Br)cc2c(C(C)C)c[nH]c12" , the value recorded as its melting point is 170 °C

Given item "O=C(NO)[C@H](CNS(=O)(=O)c1ccc(OCc2ccc(F)cc2)cc1)N1CCCCC1" , the value recorded as its melting point is 140 °C

Given item CN1CCC(Cc2ccc(Cl)nc2)C1=C[N+](=O)[O-] (stereo not given) , the value recorded as its melting point is 141 to 142 °C

Given item "CN(C)c1ccc(C(=O)c2ccc(OCCO)cc2)cc1" , the value recorded as its melting point is 142 to 143 °C
